test system: Fibroblast; assay: Multiplex assay against human fibroblast; type: toxicity, cell-based; conditions: 12 h, 10 µM, compound concentration 10 uM, replicate 2
Each entry below carries its recorded Population Healthy Nuclei (%).
MEASURED_PROPERTY: Population Healthy Nuclei (%)

* CC(C)[C@H](CO)Nc1nc(Nc2cccc(Cl)c2)c2ncn(C(C)C)c2n1 [PURVALANOLA] | 79%
* CCOC(=O)CCNc1cc(N2CCc3ccccc3CC2)nc(-c2ccccn2)n1 | 35%
* CC[C@@]1(O)C(=O)OCc2c1cc1n(c2=O)Cc2cc3ccccc3nc2-1 [CAMPTOTHECIN] | 30%

---

test system: Fibroblast; assay: Multiplex assay against human fibroblast; format: toxicity, cell-based; settings: 48 h, 10 µM, compound concentration 10 uM, replicate 1
MEASURED_PROPERTY: Total Cell Count

- C=CC(=O)Nc1cc(-n2c(=O)ccc3cnc4ccc(-c5ccc(NS(C)(=O)=O)cc5)cc4c32)ccc1C: 135
- CCCCCNC(=N)N/N=C/c1c[nH]c2ccc(OC)cc12.O=C(O)/C=C\C(=O)O [TEGASEROD MALEATE]: 127
- CC(C)[C@H](CO)Nc1nc(Nc2cccc(Cl)c2)c2ncn(C(C)C)c2n1: 131
- N#CCNC(=O)c1ccc(-c2ccnc(Nc3ccc(N4CCOCC4)cc3)n2)cc1: 155
